Recorded values, source patent US20140080757A1.

# EC50 GLP-1R Rat hepat. [nM] (inhibition of glycogen synthesis) listing for each entry below
test-system: endogenous glucagon receptor of primary rat hepatocytes (rat, UniProt P30082 27-485)
Sequence (P30082 27-485): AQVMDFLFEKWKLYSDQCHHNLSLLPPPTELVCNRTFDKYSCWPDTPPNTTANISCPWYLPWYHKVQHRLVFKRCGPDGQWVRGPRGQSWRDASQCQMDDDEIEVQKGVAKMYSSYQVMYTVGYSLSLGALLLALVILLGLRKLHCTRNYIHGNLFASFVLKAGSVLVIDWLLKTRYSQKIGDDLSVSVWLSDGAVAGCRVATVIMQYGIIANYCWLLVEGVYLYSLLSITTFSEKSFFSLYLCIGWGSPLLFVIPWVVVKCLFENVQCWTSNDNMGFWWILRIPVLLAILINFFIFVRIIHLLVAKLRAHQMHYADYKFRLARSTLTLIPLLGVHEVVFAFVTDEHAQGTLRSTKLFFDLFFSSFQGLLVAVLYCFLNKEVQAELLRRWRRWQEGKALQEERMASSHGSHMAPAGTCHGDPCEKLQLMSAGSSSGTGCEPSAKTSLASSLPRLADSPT
assay-name: cell-based or functional assay
Quick reminder: number only, in nM, skip the unit.

Prompt: Look up EC50 GLP-1R Rat hepat. [nM] (inhibition of glycogen synthesis) of HXQGTFTSDYSKYLDEXAAKDFIEWLESA (Aib at position 2; Lys 17 K(Hexadecanoyl-isoGlu); C-terminal amide (-NH2)) [Compound 15] and report it.
Response: 0.17

Next:
Prompt: Look up EC50 GLP-1R Rat hepat. [nM] (inhibition of glycogen synthesis) of HXQGTFTSDYSKYLDEXAAKDFIEWLLSA (Aib at position 2; Lys 17 K(Hexadecanoyl-isoGlu); C-terminal amide (-NH2)) [Compound 4] and report it.
Response: 0.35

Prompt: Look up EC50 GLP-1R Rat hepat. [nM] (inhibition of glycogen synthesis) of HXQGTFTSDYSKYLDSXAAHDFVEWLLSA (Aib at position 2; Lys 17 K(Hexadecanoyl-isoGlu); C-terminal -OH) [Compound 13] and report it.
Response: 0.67

Prompt: Look up EC50 GLP-1R Rat hepat. [nM] (inhibition of glycogen synthesis) of HXQGTFTSDYSKYLEEXAAKDFIEWLESA (Aib at position 2; Lys 17 K(Hexadecanoyl-isoGlu); C-terminal amide (-NH2)) [Compound 20] and report it.
Response: 0.39

Prompt: Look up EC50 GLP-1R Rat hepat. [nM] (inhibition of glycogen synthesis) of HXQGTFTSDYSKYLDEXAAKDFIEWLESA (D-Ser at position 2; Lys 17 K(Hexadecanoyl-isoGlu); C-terminal amide (-NH2)) [Compound 25] and report it.
Response: 0.15
